Target: human APJ receptor (Homo sapiens, UniProt P35414)
Construct: expressed in transfected cells
Sequence (P35414 whole entry): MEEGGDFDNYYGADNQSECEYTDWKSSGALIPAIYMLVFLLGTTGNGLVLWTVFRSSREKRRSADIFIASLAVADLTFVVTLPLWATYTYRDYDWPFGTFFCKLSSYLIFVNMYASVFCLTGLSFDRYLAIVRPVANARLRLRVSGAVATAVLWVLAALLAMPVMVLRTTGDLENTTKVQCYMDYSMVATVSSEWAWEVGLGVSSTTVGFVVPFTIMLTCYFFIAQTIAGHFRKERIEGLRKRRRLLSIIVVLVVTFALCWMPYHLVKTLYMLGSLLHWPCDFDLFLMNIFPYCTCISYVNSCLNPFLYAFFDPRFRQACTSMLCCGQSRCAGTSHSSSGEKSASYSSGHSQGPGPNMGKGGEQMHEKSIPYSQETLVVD
Assay: Intracellular cAMP accumulation assay (APJ hcAMP, HTRF)
Format: cell-based
Settings: Table 1; HEK293 cells stably expressing human APJ receptor; inhibition of forskolin-mediated cAMP production; read-out: APJ hcAMP EC50
reportedMetric: EC50

# annotated cases, reported EC50 shown
[[record]]
molecule = "COC[C@H](Cc1ccccc1)NC(=O)c1ccc(-c2cc(Cl)ccc2-c2nc3ccccc3[nH]2)c(C(=O)O)c1 [Example 78]"
reportedmetric = "EC50"
result = "101 to 500 nM"

[[record]]
molecule = "COc1cc2[nH]c(-c3cccc(Cl)c3-c3ccc(C(=O)N4CCCC4)cc3C(=O)O)nc2cc1F [Example 124]"
reportedmetric = "EC50"
result = "10 to 100 nM"

[[record]]
molecule = "COC[C@@H](NC(=O)c1ccc(-c2ccccc2-c2nc3cc(OC)ccc3[nH]2)c(C(=O)O)c1)c1ccccc1 [Example 64]"
reportedmetric = "EC50"
result = "< 10 nM"

[[record]]
molecule = "CCCC(NC(=O)c1ccc(-c2c(Cl)cccc2-c2nc3cc(OC)c(F)cc3[nH]2)c(C(=O)O)c1)c1ccc(Cl)cc1OC (single isomer, unassigned) [Example 197]"
reportedmetric = "EC50"
result = "< 10 nM"


Next molecule, please.
[in] GET /values?readout=EC50&item= CCCC(NC(=O)c1ccc(-c2c(Cl)cccc2-c2nc3ccccc3[nH]2)c(C(=O)O)c1)c1ccccc1C(F)(F)F (single isomer, unassigned) [Example 189]
[out] 10 to 100 nM
